# System: HCV replication
# assay-protocol: Replicon Assay (Huh-lucubineo-ET cells, luciferase readout)
# Format: cell-based
# condition-notes: Hepatitis C virus; ET (Huh-lucubineo-ET) HCV replicon cell line; luciferase activity 48-72 hours after compound addition; 6 dilutions
Known EC50 of a selection of molecules
assay-metric: EC50 (nM)

• CC(c1ccc(-c2ccc(C(F)(F)F)cc2C(F)(F)F)cn1)n1cc2nc(-c3cccc(F)c3F)nc-2cn1 (stereo not shown) = 278
• COc1ccc(-c2cnc(Cn3cc4nc(-c5cccc(F)c5F)nc-4cn3)cn2)c(C(F)(F)F)c1 = 23
• CCCOc1ccc(-c2cnc(Cn3cc4nc(-c5cccc(F)c5F)nc-4cn3)nc2)c(C(F)(F)F)c1 = 218

* * *

Known EC50 of a selection of compounds
# System: HCV replication
# assay-protocol: Replicon Assay (Huh-lucubineo-ET cells, luciferase readout)
# Format: cell-based
# condition-notes: Hepatitis C virus; ET (Huh-lucubineo-ET) HCV replicon cell line; luciferase activity 48-72 hours after compound addition; 6 dilutions
assay-metric: EC50 (nM)

- Fc1cccc(-c2nc3cnn(Cc4ccc(-c5ccc(OCC6CC6)cc5C(F)(F)F)nn4)cc-3n2)c1F [Compound 327]: 54
- COc1ccc(-c2ccc(Cn3cc4nc(-c5ccccc5F)nc-4cn3)nn2)c(C(F)(F)F)c1 [Compound 317]: 64
- COc1ccc(-c2ccc(Cn3cc4nc(-c5cccc(F)c5F)nc-4cn3)nn2)c(C(F)(F)F)c1 [Compound 238]: 6
- COc1ccc(-c2ccc(Cn3cc4nc(-c5cccc(F)c5F)nc-4cn3)nc2)c(C(F)(F)F)c1 [Compound 243]: 17
- [O-][n+]1cc(Cn2cc3nc(-c4cccc(F)c4F)nc-3cn2)ccc1-c1ccc(C(F)(F)F)cc1C(F)(F)F [Compound 345]: 80
- Fc1cccc(-c2nc3cnn(Cc4ccc(-c5ccc(C(F)(F)F)cc5C(F)(F)F)cc4)cc-3n2)c1F [Compound 244]: 9
- COc1ccc(-c2ccc(Cn3cc4nc(-c5cccc(F)c5F)nc-4cn3)nn2)c(Cl)c1 [Compound 228]: 112
- COc1ccc(-c2ccc(Cn3cc4nc(-c5cccc(F)c5F)nc-4cn3)c(N)n2)c(C(F)(F)F)c1 [Compound 242]: 44
- CCCCc1ccc(-c2ccc(Cn3cc4nc(-c5cccc(F)c5F)nc-4cn3)nn2)cc1 [Compound 115]: 1470
- Fc1cccc(-c2nc3cnn(Cc4ccc(-c5ccc(-c6cn[nH]c6)cc5C(F)(F)F)nn4)cc-3n2)c1F [Compound 203]: 21000
- CCCOc1ccc(-c2ccc(Cn3cc4nc(-c5cccc(F)c5F)nc-4cn3)nc2)cc1 [Compound 247]: 5080
- O=S(=O)(Oc1ccc(-c2ccc(Cn3cc4nc(-c5cccc(F)c5F)nc-4cn3)nn2)c(C(F)(F)F)c1)C(F)(F)F [Compound 353]: 1190
- Fc1cccc(-c2nc3cnn(Cc4ccc(Oc5ccc(OC(F)(F)F)cc5)nn4)cc-3n2)c1F [Compound 341]: 6030
- COc1ccc(-c2ccc(Cn3cc4nc(-c5cccc(F)c5F)nc-4cn3)c(OC)c2)c(C(F)(F)F)c1 [Compound 294]: 473
- COc1ccc(-c2ccc(Cn3cc4nc(-c5ccccc5F)nc-4cn3)cn2)c(C(F)(F)F)c1 [Compound 212]: 81
- CC(C)Cc1ccc(-c2ccc(Cn3cc4nc(-c5cccc(F)c5F)nc-4cn3)nn2)c(C(F)(F)F)c1 [Compound 332]: 19
- Fc1cccc(-c2nc3cnn(Cc4ccc(-c5ccc(OC(F)(F)F)cc5)cc4)cc-3n2)c1F [Compound 229]: 8380

* * *

Known log10 EC50 of a selection of compounds
# Tested on: HCV replication
# assay-protocol: Replicon Assay (Huh-lucubineo-ET cells, luciferase readout)
# Assay type: cell-based
# condition-notes: Hepatitis C virus; ET (Huh-lucubineo-ET) HCV replicon cell line; luciferase activity 48-72 hours after compound addition; 6 dilutions
# Procedure: A cell line, ET (Huh-lucubineo-ET) was used for screening of compounds of the present invention for inhibition of HCV replication. […] Luciferase activity was measured 48-72 hours later by adding a lysis buffer and the substrate (Catalog number Glo-lysis buffer E2661 and Bright-Glo luciferase system E2620 Promega, Madison, Wis.). […] EC50 and similarly TC50 values were calculated by fitting % inhibition at each concentration to the following equation: […]
assay-metric: log10 EC50 (log10 of the value in nM)

* Fc1cccc(-c2nc3cnn(Cc4ccc(-c5ccc(-c6ccccc6)cc5C(F)(F)F)nn4)cc-3n2)c1F [Compound 205] | 2.15
* Cc1ccc(-c2ccc(Cn3cc4nc(-c5cccc(F)c5F)nc-4cn3)cn2)c(C(F)(F)F)c1 [Compound 376] | 2.12
* COc1ccc(-c2ccc(Cn3cc4nc(-c5cccc(F)c5F)nc-4cn3)c(OCCCN3CCOCC3)c2)c(C(F)(F)F)c1 [Compound 349] | 3.80
* FCCOc1ccc(-c2ccc(Cn3cc4nc(-c5cccc(F)c5F)nc-4cn3)nn2)c(C(F)(F)F)c1 [Compound 352] | 1.36
* Fc1ccccc1-c1nc2cnn(Cc3ccc(-c4ccc(C(F)(F)F)cc4C(F)(F)F)cn3)cc-2n1 [Compound 267] | 3.11
* CCCOc1ccc(-c2ccc(Cn3cc4nc(-c5cccc(F)c5F)nc-4cn3)nc2)c(C(F)(F)F)c1 [Compound 296] | 1.36
* CC(=O)COc1ccc(-c2ccc(Cn3cc4nc(-c5cccc(F)c5F)nc-4cn3)nn2)c(C(F)(F)F)c1 [Compound 318] | 2.82

* * *

# Test system: HCV replication
# assay-protocol: Replicon Assay (Huh-lucubineo-ET cells, luciferase readout)
# Type: cell-based
# condition-notes: Hepatitis C virus; ET (Huh-lucubineo-ET) HCV replicon cell line; luciferase activity 48-72 hours after compound addition; 6 dilutions
pEC50: −log10 of the molar value.
Known pEC50 of a selection of compounds
assay-metric: pEC50

* Fc1cccc(-c2nc3cnn(Cc4ccc5occc5c4)cc-3n2)c1F [Compound 283] | ≤ 4.30
* COCc1ccc(-c2ccc(Cn3cc4nc(-c5cccc(F)c5F)nc-4cn3)nn2)cc1 [Compound 213] | ≤ 4.30
* Cc1cccc(-c2ccc(Cn3cc4nc(-c5cccc(F)c5F)nc-4cn3)nn2)c1 [Compound 221] | ≤ 4.30

* * *

# Tested on: HCV replication
# assay-protocol: Replicon Assay (Huh-lucubineo-ET cells, luciferase readout)
# Format: cell-based
# condition-notes: Hepatitis C virus; ET (Huh-lucubineo-ET) HCV replicon cell line; luciferase activity 48-72 hours after compound addition; 6 dilutions
assay-metric: log10 of EC50 (log10 of the value in nM)

* Cc1nc(Cn2cc3nc(-c4cccc(F)c4F)nc-3cn2)ccc1-c1ccc(C(F)(F)F)cc1C(F)(F)F | 2.22
* Cc1ccc(-c2ccc(Cn3cc4nc(-c5cccc(F)c5F)nc-4cn3)nc2)c(C(F)(F)F)c1 | 1.80
* O=[N+]([O-])c1cc(C(F)(F)F)ccc1-c1ccc(Cn2cc3nc(-c4cccc(F)c4F)nc-3cn2)cn1 | 1.77
* N#Cc1ccccc1-c1ccc(Cn2cc3nc(-c4cccc(F)c4F)nc-3cn2)cc1 | 2.95
* Fc1cccc(-c2nc3cnn(Cc4ccc(-c5ccc(Br)c(C(F)(F)F)c5)cc4)cc-3n2)c1F | 2.51
* Fc1cccc(-c2nc3cnn(Cc4ccc(N5CCOCC5)cc4)cc-3n2)c1F | 3.93
* Oc1nc(-c2ccc(C(F)(F)F)cc2C(F)(F)F)ccc1Cn1cc2nc(-c3cccc(F)c3F)nc-2cn1 | 4.14

* * *

# System: HCV replication
# assay-protocol: Replicon Assay (Huh-lucubineo-ET cells, luciferase readout)
# Format: cell-based
# condition-notes: Hepatitis C virus; ET (Huh-lucubineo-ET) HCV replicon cell line; luciferase activity 48-72 hours after compound addition; 6 dilutions
pEC50: −log10 of the molar value.
assay-metric: pEC50

• Fc1cccc(-c2ccc(Cn3cc4nc(-c5cccc(F)c5F)nc-4cn3)nn2)c1 [Compound 222] = ≤ 4.30
• Fc1cccc(-c2nc3cnn(Cc4cccc(-n5cccn5)c4)cc-3n2)c1F [Compound 291] = ≤ 4.30
• COc1cccc(-c2ccc(Cn3cc4nc(-c5cccc(F)c5F)nc-4cn3)nn2)c1OC [Compound 202] = ≤ 4.30
• Fc1cccc(-c2nc3cnn(Cc4ccc(C(F)(F)F)cc4C(F)(F)F)cc-3n2)c1F [Compound 263] = ≤ 4.30
